Reference for the values: patent US20250339569A1

target-of-assay: CAIX-expressing human HT-29 colorectal cancer cells (Homo sapiens, UniProt Q16790)
Construct: CAIX-expressing human HT-29 colorectal cancer cells; host or cells: HT-29 human colorectal cancer cells
test-protocol: FACS binding assay (IC50 determination, competition with tracer 3BP-2776 or 3BP-4149)
condition-details: FACS competition on HT-29 cells, Tracer ID 3BP-2776 (10 nM, biotin-labeled), 4° C., 1 hour; read-out: pIC50 category (activity) (converted)
Starred links: 1 amine or outer side, 2 acyl side, 3 side chain; linkers in the order of their positions; H or OH if unused. Positions of bridges follow the written chain, without caps; N, C: chain ends. Non-standard residues stand in square brackets, D forms with d. Residues, ends and D or L forms follow the SMILES beside them. *: point of attachment. DOTA = O=C(O)CN1CCN(CC(=O)O)CCN(CC(=O)*)CCN(CC(=O)O)CC1; Trp(5-OH) = N[C@@H](Cc1c[nH]c2ccc(O)cc12)C(=O)O; mXylylene = c1cc(C[*:1])cc(C[*:2])c1; X2 = O=C(CN1CCC(N[*:1])CC1)[*:2]; Ac6c = NC1(C(=O)O)CCCCC1; AEEA = NCCOCCOCC(=O)O; Aib = CC(C)(N)C(=O)O; Sar = CNCC(=O)O
measurement-label: IC50

Recorded IC50, per entry:
{"compound": "CC(=O)N[C@H](C(=O)N[C@@H](Cc1ccc(O)cc1)C(=O)N[C@H]1CSCc2cccc(c2)CSC[C@@H](C(N)=O)NC(=O)[C@H](CO)NC(=O)[C@H](Cc2c[nH]c3ccccc23)NC(=O)[C@H]([C@@H](C)O)NC(=O)[C@H](CC(C)C)NC(=O)[C@H](Cc2c[nH]c3ccccc23)NC(=O)[C@H](CC(=O)O)NC(=O)[C@H]2CCCN2C(=O)[C@H](CCC(=O)O)NC1=O)C(C)C [3BP-3565] (Ac-VYCE[dP]DWLTWSC-NH2; linker 3-12 via mXylylene)", "assay-value": "< 10 nM"}
{"compound": "CC(C)C[C@@H]1NC(=O)[C@H](Cc2c[nH]c3ccccc23)NC(=O)[C@H](CC(=O)O)NC(=O)[C@H]2CCCN2C(=O)[C@H](CCC(=O)O)NC(=O)[C@@H](NC(=O)CN2CCC(NC(=O)CN3CCN(CC(=O)O)CCN(CC(=O)O)CCN(CC(=O)O)CC3)CC2)CSCc2cccc(c2)CSC[C@@H](C(N)=O)NC(=O)[C@H](CO)NC(=O)[C@H](Cc2c[nH]c3ccccc23)NC(=O)[C@H]([C@@H](C)O)NC1=O [3BP-3858] ({DOTA}-[X2]CE[dP]DWLTWSC-NH2; linker 2-11 via mXylylene)", "assay-value": "< 10 nM"}
{"compound": "CC(=O)N[C@H](C(=O)N[C@@H](Cc1ccc(O)cc1)C(=O)N[C@H]1CSCc2cccc(c2)CSC[C@@H](C(N)=O)NC(=O)[C@H](CCC(N)=O)NC(=O)[C@H](Cc2c[nH]c3ccccc23)NC(=O)[C@H]([C@@H](C)O)NC(=O)[C@H](CC(C)C)NC(=O)[C@H](Cc2c[nH]c3ccc(O)cc23)NC(=O)[C@H](CC(=O)O)NC(=O)CN(C)C(=O)[C@H](CCC(=O)O)NC1=O)C(C)C [3BP-3310] (Ac-VYCE[Sar]D[Trp(5-OH)]LTWQC-NH2; linker 3-12 via mXylylene)", "assay-value": "100 to 794 nM"}
{"compound": "CC(=O)N[C@H](C(=O)N[C@@H](Cc1ccc(O)cc1)C(=O)N[C@H]1CSCc2cccc(c2)CSC[C@@H](C(N)=O)NC(=O)[C@H](CCC(N)=O)NC(=O)[C@H](Cc2c[nH]c3ccccc23)NC(=O)[C@H](C)NC(=O)[C@H](CC(C)C)NC(=O)[C@H](Cc2c[nH]c3ccccc23)NC(=O)[C@H](CC(=O)O)NC(=O)CNC(=O)[C@H](CCC(=O)O)NC1=O)C(C)C [3BP-3056] (Ac-VYCEGDWLAWQC-NH2; linker 3-12 via mXylylene)", "assay-value": "10 to 79.4 nM"}

Requested field: IC50. Item: CC[C@H](C)[C@H](NC(C)=O)C(=O)N[C@@H](Cc1ccc(O)cc1)C(=O)N[C@H]1CSCc2cccc(c2)CSC[C@@H](C(N)=O)NC(=O)[C@H](CO)NC(=O)[C@H](Cc2c[nH]c3ccccc23)NC(=O)[C@H]([C@@H](C)O)NC(=O)[C@H](CC(C)C)NC(=O)[C@H](Cc2c[nH]c3ccccc23)NC(=O)[C@H](CC(=O)O)NC(=O)[C@H]2CCCN2C(=O)[C@H](CCC(=O)O)NC1=O [3BP-3568] (Ac-IYCE[dP]DWLTWSC-NH2; linker 3-12 via mXylylene) < 10 nM

Try the compound CC(C)C[C@@H]1NC(=O)[C@H](Cc2c[nH]c3ccccc23)NC(=O)[C@H](CC(=O)O)NC(=O)[C@H]2CCCN2C(=O)[C@H](CCC(=O)O)NC(=O)[C@@H](NC(=O)[C@H](Cc2ccc(O)cc2)NC(=O)COCCOCCNC(=O)CN2CCN(CC(=O)O)CCN(CC(=O)O)CCN(CC(=O)O)CC2)CSCc2cccc(c2)CSC[C@@H](C(N)=O)NC(=O)[C@H](CO)NC(=O)[C@H](Cc2c[nH]c3ccccc23)NC(=O)[C@H]([C@@H](C)O)NC1=O [3BP-3869] ({DOTA-AEEA}-YCE[dP]DWLTWSC-NH2; linker 2-11 via mXylylene) < 10 nM

Try the compound CC(=O)N[C@H](C(=O)N[C@@H](Cc1ccc(O)cc1)C(=O)N[C@H]1CSCc2cccc(c2)CSC[C@@H](C(N)=O)NC(=O)[C@H](C)NC(=O)[C@H](Cc2c[nH]c3ccccc23)NC(=O)[C@H]([C@@H](C)O)NC(=O)C2(CCCCC2)NC(=O)[C@H](Cc2c[nH]c3ccccc23)NC(=O)[C@H](CC(=O)O)NC(=O)[C@H]2CCCN2C(=O)[C@H](CCC(=O)O)NC1=O)C(C)C [3BP-3503] (Ac-VYCE[dP]DW[Ac6c]TWAC-NH2; linker 3-12 via mXylylene) < 10 nM

Try the compound CC(=O)N[C@H](C(=O)N[C@@H](Cc1ccc(O)cc1)C(=O)N[C@H]1CSCc2cccc(c2)CSC[C@@H](C(N)=O)NC(=O)[C@H](CCC(N)=O)NC(=O)[C@H](Cc2c[nH]c3ccccc23)NC(=O)[C@H]([C@@H](C)O)NC(=O)[C@H](CC(C)C)NC(=O)[C@H](Cc2c[nH]c3ccccc23)NC(=O)C(C)(C)NC(=O)CNC(=O)[C@H](CCC(=O)O)NC1=O)C(C)C [3BP-3061] (Ac-VYCEG[Aib]WLTWQC-NH2; linker 3-12 via mXylylene) 100 to 794 nM

* * *

target-of-assay: CAIX-expressing human HT-29 colorectal cancer cells (Homo sapiens)
Construct: CAIX-expressing human HT-29 colorectal cancer cells; host or cells: HT-29 human colorectal cancer cells
test-protocol: FACS binding assay (IC50 determination, competition with tracer 3BP-2776 or 3BP-4149)
condition-details: FACS competition on HT-29 cells, Tracer ID 3BP-2776 (10 nM, biotin-labeled), 4° C., 1 hour; read-out: pIC50 category (activity) (converted)
Description: In order to determine binding of compounds according to the present invention to CAIX-expressing cells, a FACS binding assay was established. […] Cells were washed twice with ice-cold FACS buffer and analyzed in an Attune NxT flow cytometer (Thermo Fisher). Median fluorescence intensities (MFI) of the APC/Cy5-channel were calculated by Attune NxT software. […]
Starred links: 1 amine or outer side, 2 acyl side, 3 side chain; linkers in the order of their positions; H or OH if unused. Positions of bridges follow the written chain, without caps; N, C: chain ends. Non-standard residues stand in square brackets, D forms with d. Residues, ends and D or L forms follow the SMILES beside them. *: point of attachment. NH(CH2)3NHDOTA = O=C(O)CN1CCN(CC(=O)O)CCN(CC(=O)NCCCN*)CCN(CC(=O)O)CC1; mXylylene = c1cc(C[*:1])cc(C[*:2])c1
measurement-label: IC50

Test system CAIX-expressing human HT-29 colorectal cancer cells (Homo sapiens); read-out IC50; what value for CC(=O)N[C@@H](CO)C(=O)N[C@@H](Cc1ccc(O)cc1)C(=O)N[C@H]1CSCc2cccc(c2)CSC[C@@H](C(N)=O)NC(=O)[C@H](CCC(=O)NCCCNC(=O)CN2CCN(CC(=O)O)CCN(CC(=O)O)CCN(CC(=O)O)CC2)NC(=O)[C@H](Cc2c[nH]c3ccccc23)NC(=O)[C@H]([C@@H](C)O)NC(=O)[C@H](CC(C)C)NC(=O)[C@H](Cc2c[nH]c3ccccc23)NC(=O)[C@H](CC(=O)O)NC(=O)[C@H]2CCCN2C(=O)[C@H](CCC(=O)O)NC1=O [3BP-3873] (Ac-SYCE[dP]DWLTWE(NH(CH2)3NHDOTA)C-NH2; linker 3-12 via mXylylene) ? < 10 nM
